Tested on: MDA-MB-231 breast
Experiment: NCI tumour cell line growth inhibition, 48 h
# reported TGI; entries follow

{"COMPOUND": "CCc1nc2c(c(N(C)C)c1C(=O)OC)CCc1ccccc1-2", "OBSERVED_MEASUREMENT": "87.8 µM"}
{"COMPOUND": "O=c1/c(=N\\Nc2ccccc2)c2cccc3ccc4cccc1c4c32", "OBSERVED_MEASUREMENT": "> 100 µM"}

// below: TGI requested for another compound
Provide measured TGI value, entry: COc1ccc([C@]23CCC4(OCC(C)(C)CO4)[C@H]4CON(O[C@H](O[C@@H]5CCCCC5C(C)(C)c5ccccc5)C2)[C@@H]43)cc1OC (stereo partly drawn)
> 100 µM

----------
System: HCT-15 colon
Test: NCI tumour cell line growth inhibition, 48 h
This section presents molecules with their documented TGI values.

{"MOLECULE": "O=C1CC[C@@]23CC(=O)O[C@@H]2CCCC3C1 (stereo not given in full)", "TESTED_TARGET": "HCT-15 colon", "TGI": "> 100 µM"}

Give the reported TGI for this molecule. `CC(C)=CCC[C@@H](C)C1=C(Nc2ccccc2F)C(O)=C(C)C(=O)C1=O`
> 70.6 µM

Please report TGI for the following molecule: `CCN(CC)C(=S)N/N=C(/c1ccccc1)c1ccccn1`
> 36.9 µM

----------
System: SK-MEL-5 melanoma
Assay: NCI tumour cell line growth inhibition, 48 h
Here, each record is paired with measured TGI data.
The answer is to be given in µM; state only the numeric part.

Guide cases for TGI, answers given:
{"GIVEN_SMILES": "CO/N=C(\\COc1ccc2oc(-c3ccccc3)cc(=O)c2c1)c1ccc(F)cc1", "TGI (µM)": 93.5}
{"GIVEN_SMILES": "CC(C)=CCC[C@@H](C)C1=C(Nc2ccccc2F)C(O)=C(C)C(=O)C1=O", "TGI (µM)": 14.8}
{"GIVEN_SMILES": "CC(=O)[CH-]C(=O)c1ccccc1.CC(=O)[CH-]C(=O)c1ccccc1.[O-]c1ccc2c(c1)OCO2.[O-]c1ccc2c(c1)OCO2.[Ti+4]", "TGI (µM)": 78.6}

Moving on to another compound below.
Identify measured TGI associated with `CN1CCN(CCCOc2cc(O)c3c(=O)cc(-c4ccccc4)oc3c2)CC1`
23.1

----------
Tested on: ACHN renal
Assay: NCI tumour cell line growth inhibition, 48 h
OBSERVATION_TYPE: GI50

Here is how some compounds turned out for GI50.
{"COMPOUND": "COc1ccc2[nH]c(C(=O)OCc3ccc4c(Cl)cc(Cl)c(O)c4n3)cc2c1", "GI50": "1080 nM"}
{"COMPOUND": "O=c1[nH]c(=O)n(C2CC(O)C(CO)O2)cc1C(F)(F)F (stereo unspecified)", "GI50": "1300 nM"}
{"COMPOUND": "O=C1NC(c2ccccc2)C2(C(=O)O)CN(C3CC3)c3cc(N4CCNCC4)c(F)cc3C2N1 (stereo unspecified)", "GI50": "> 100000 nM"}

Indicate its recorded GI50; the compound in question is `O=C([O-])CC(=O)[O-].[NH-][C@@H]1CCCC[C@H]1[NH-].[Pt+4]`
> 35900 nM

Let me know recorded GI50 for N#Cc1cccc(C2C3=C(COC3=O)N(CCO)c3cc4c(cc32)OCO4)c1 (stereo unspecified) , thanks.
3530 nM

Give me measured GI50, please, for this compound: CC1(C)CCC[C@]2(C)c3ccccc3C(=O)CC12 (stereo partly specified)
67400 nM

Provide measured GI50 value, entry: `Cc1ccc(C(=O)NC2CC2)cc1-c1ccc2[nH]ncc2c1`
> 25000 nM

Specify GI50 for `CN1CCN(CCCOc2cc(O)c3c(=O)cc(-c4ccccc4)oc3c2)CC1` and stop.
16000 nM

Give the measured GI50 for O=C(/C=C/C12c3ccccc3C(c3ccccc31)C1C(=O)NC(=O)C12)c1ccccc1 (stereo unspecified)
1750 nM

// Input: `CC[C@H](C)[C@H](NC(=O)c1cccn1C)C(=O)N(C)[C@H](C[C@@H](OC(C)=O)c1nc(C(=O)N[C@@H](Cc2ccccc2)C[C@H](C)C(=O)OC)cs1)C(C)C` . Output its GI50 only.
502 nM

----------
Measured TGI values are reported for all entries that follow.
Tested on: SF-295 CNS
Assay: NCI tumour cell line growth inhibition, 48 h

{"COMPOUND": "C=C(C)[C@H]1CC23C(=O)[C@@](C)(C[C@H]2C1(C)C)C(=O)C(C(=O)C(C)C)=C3O", "TGI": "36.7 µM"}
{"COMPOUND": "COc1ccc(-c2cc3cc(Cl)cc(Cl)c3oc2=O)cc1OC", "TGI": "> 100 µM"}
{"COMPOUND": "CN1C2=Nc3n(c4ccccc4[n+]3C)CN2c2ccccc21", "TGI": "> 100 µM"}

Look up SF-295 CNS data: TGI of `O=C1c2cc3c(cc2-c2c1c1ccc(Cl)cc1c(=O)n2CCCn1ccnc1)OCO3` , then report it.
10 µM

Provide TGI, system SF-295 CNS, entry `O=C(c1ccc([N+](=O)[O-])cc1)N1CCCC1`
> 100 µM

Report its TGI with SF-295 CNS as the test system: CC1=CCCC2C(C=O)(C1)CC(C)C2(CO)CC/C(=C/CO)CO (configuration not stated)
> 100 µM

Look up and report TGI, with SF-295 CNS as system, for `COc1ccc(-c2cc(=O)c3c(O)c(OC)c(OC)c(OC)c3o2)cc1`
> 100 µM

// fetch TGI for `Cc1cccc2c1[nH]c(=O)c1c3ccccc3cn21` ; system: SF-295 CNS
25.1 µM

Please indicate recorded TGI of `N#Cc1c(-c2ccc([N+](=O)[O-])cc2)c(C#N)c(=O)n(NS(=O)(=O)c2ccccc2)c1O` measured with SF-295 CNS.
> 100 µM

Consider the compound `CO/N=C(\COc1ccc2oc(-c3ccccc3)cc(=O)c2c1)c1ccc(F)cc1` tested on SF-295 CNS; state its TGI.
> 100 µM

Recall the reported TGI of `NC(=O)C1CCN(Cc2c(Cl)c(Cl)c(CN3CCC(C(N)=O)CC3)c(Cl)c2Cl)CC1` when tested on SF-295 CNS.
75.3 µM

----------
Measured TGI by item
Tested on: SNB-75 CNS
Test: NCI tumour cell line growth inhibition, 48 h

{"MOLECULE": "CSc1nc(Cl)c2c(n1)Sc1nc3ccccc3n1C2O (stereo not given)", "TGI": "> 82.2 µM"}
{"MOLECULE": "O=c1[nH]c(=O)n(C2CC(O)C(CO)O2)cc1C(F)(F)F (stereo not given)", "TGI": "> 100 µM"}
{"MOLECULE": "Cc1cn(S(=O)(=O)c2ccccc2)c2c(OCc3ccccc3)cc(NC(=O)c3cc4cc([N+](=O)[O-])ccc4s3)cc12", "TGI": "> 100 µM"}
{"MOLECULE": "COc1ccc(-c2cc(=O)c3c(O)c(OC)c(OC)c(OC)c3o2)cc1", "TGI": "> 56.3 µM"}
{"MOLECULE": "CO[P@@]1(=O)O[C@@H](c2ccccc2)[C@H](O)[C@]1(O)c1ccccc1", "TGI": "> 100 µM"}
{"MOLECULE": "CCOC(=O)/C=C/CCC(C)(C)COC(C)=O", "TGI": "> 10 µM"}

Indicate the recorded TGI value for this molecule: `COc1cc(N=Nc2ccc(OC)c(S(=O)(=O)O)c2)c(C)cc1N=Nc1ccc(/C=C/c2ccc(N=[N+]([O-])c3ccc(/C=C/c4ccc(N=Nc5cc(C)c(N=Nc6ccc(OC)c(S(=O)(=O)O)c6)cc5OC)cc4S(=O)(=O)O)c(S(=O)(=O)O)c3)cc2S(=O)(=O)O)c(S(=O)(=O)O)c1`
> 100 µM

Give me measured TGI, please, for this molecule: `COC(=O)N[C@H]1CCc2c(Cl)c(OC)c(OC)c(OC)c2-c2ccc(SC)c(=O)cc21`
> 81.2 µM

Given the molecule Cc1cccc2c1CC(Cc1ccccc1C(=O)O)C2=O (stereo not given) , write its reported TGI.
> 100 µM

Give TGI for `CN(N)c1nc(N)c(C#N)c(C#N)c1C#N`
> 10 µM

----------
Test system: OVCAR-5 ovarian
Assay: NCI tumour cell line growth inhibition, 48 h
Some molecules, each annotated with its measured TGI.

Worked cases, answers included:
{"MOLECULE": "C/C=C(\\C)C(=O)OC1/C=C(\\C)CC/C=C(\\C)CC2OC(=O)C(C)(OC(C)=O)C12 (stereo not drawn)", "TESTED_TARGET": "OVCAR-5 ovarian", "OBSERVATION_TYPE": "TGI", "OBSERVED_MEASUREMENT": "> 100 µM"}
{"MOLECULE": "COc1c(N2CCN(CN3C(=O)C(=Nc4ccc(S(=O)(=O)Nc5ncccn5)cc4)c4cc(Cl)ccc43)C(C)C2)c(F)cc2c(=O)c(C(=O)O)cn(C3CC3)c12 (stereo not drawn)", "TESTED_TARGET": "OVCAR-5 ovarian", "OBSERVATION_TYPE": "TGI", "OBSERVED_MEASUREMENT": "> 50 µM"}

Consider the molecule `O=C(C(=C(I)I)c1ccccc1)c1ccccc1` . State its measured TGI.
> 100 µM

Look up and state reported TGI for `O=c1c2cc3ccccc3n2c(=O)c2cc3ccccc3n12`
> 100 µM

Answer with reported TGI of COc1ccc2c(c1OC)C(=O)N1C2=Cc2c(cc3c(c2OC)OCO3)CC1N(C)C (stereo not drawn)
> 100 µM

Item `CCN(Cc1c(F)cccc1Cl)c1ccc(CO)c(Cl)c1` : provide TGI
0.106 µM

Entry `COc1ccc(S(=O)(=O)N(C(C)=O)c2ccccc2/C=C/c2cc[n+]([O-])cc2)cc1` needs its TGI filled in; supply it.
> 10 µM

Specify measured TGI for `CC(C)=CCc1c(O)cc2oc(-c3ccc(O)cc3O)cc(=O)c2c1O` .
81.3 µM
